target: T1, human FXI (human coagulation Factor XI) (human, UniProt P03951 19-625); experiment: BLI (Octet Fortebio), antibody on AHC (anti-human-Fc) sensor, FXI in solution
T1 construct: Bought protein; Biotin-labeled form (HCXI-0150-B) was used in the hybridoma screen; also called FXI protein; FXI antigen
quantity kind: kon (M⁻¹ s⁻¹)
Numbers only, in M⁻¹ s⁻¹.

Using the record for BAY-1213790 (antibody, V domains shown) VH: EVQLLESGGGLVQPGGSLRLSCAASGFTFSQYGMDWVRQAPGKGLEWVSGIGPSGGSTVYADSVKGRFTISRDNSKNTLYLQMNSLRAEDTAVYYCTRGGPYYYYGMDVWGQGTTVTVSS VL: DIQMTQSPSSLSASVGDRVTITCQASQDISNYLNWYQQKPGKAPKLLIYDASNLETGVPSRFSGSGSGTDFTFTISSLQPEDIATYYCQQADSFPVTFGGGTKVEIKR , report its kon.
910000

Further cases:
Using the record for chimeric antibody 36G9.10-hz00 (antibody, human IgG1, kappa, N297A, V domains shown, Murine variable regions grafted to human IgG1 (N297A) and human kappa constant regions) VH: EVQLQQSGAELVKPGASVKLSCTASGFNIKDTYIHWVKQRPEQGLEWIGRIDPANDNTKYDPKFQGKATITADTSSNTAYLQLSSLTSEDSAVYYCAQDYDGFAMDYWGQGTSVTVSS VL: DIQMTQSPSSLSASLGGKVTITCKASQDINKYITWFQHKPGKGPRLLIHYTSTLQPGIPSRFSGSGSGRDYSFSISNLEPEDSATYYCLQYDYLLTFGGGTKLEIKR , report its kon.
6.52e+06
